# System: E. coli D22
# TEST NAME: Broth microdilution MIC in CAMHB
# Assay type: cell-based
# EXPERIMENTAL SETUP: Escherichia coli; E. coli D22 (hyper-permeable); MHB; read-out: Minimum Inhibitory Concentration, E. coli D22
# Source text: Example III: In Vitro Antibacterial Assays To determine the ability of test compounds to inhibit the growth of bacterial strains, classic cell based broth microdilution minimum inhibitory concentration (MIC) assays were employed. […] Briefly, cryo-preserved bacterial cultures of challenge strains are streaked for isolation on appropriate agar medium, in this case cation-adjusted Mueller Hinton agar. […] The MIC values are read visually as the lowest concentration well with no bacterial growth.

COMPOUND: NCCN1CCN(C(=O)N[C@@H](C(=O)N[C@H]2Cc3cccc(C(=O)O)c3OB2O)c2ccc(C(=O)O)cc2)C(=O)C1=O (single isomer, unassigned)
MIC: 2 to 4 µg/mL
--
COMPOUND: CCN1CCN(C(=O)NC(C(=O)N[C@H]2Cc3cccc(C(=O)O)c3OB2O)c2c(F)c(F)c(O)c(F)c2F)C(=O)C1=O (some centres unmarked)
MIC: 2 to 4 µg/mL
--
COMPOUND: CS(=O)(=O)N1CCN(C(=O)N[C@H](C(=O)N[C@H]2Cc3cccc(C(=O)O)c3OB2O)c2c(F)cc(O)cc2F)C1=O (single isomer, unassigned)
MIC: 8 to 16 µg/mL
--
COMPOUND: NCCN1CCN(C(=O)NC(C(=O)N[C@H]2Cc3cccc(C(=O)O)c3OB2O)c2cc(F)c(O)cc2Cl)C(=O)C1=O (some centres unmarked)
MIC: 8 to 16 µg/mL
--
COMPOUND: CCN1CCN(C(=O)NC(C(=O)N[C@H]2Cc3cccc(C(=O)O)c3OB2O)c2cc(F)c(C(=O)O)cc2F)C(=O)C1=O (some centres unmarked)
MIC: 8 to 16 µg/mL
--
COMPOUND: NCCN1CCN(C(=O)NC(C(=O)N[C@H]2Cc3cccc(C(=O)O)c3OB2O)c2cc(F)c(O)cc2F)C(=O)C1=O (some centres unmarked)
MIC: 2 to 4 µg/mL
--
COMPOUND: CCN1CCN(C(=O)NC(C(=O)N[C@H]2Cc3cccc(C(=O)O)c3OB2O)c2cncc(O)c2)C(=O)C1=O (some centres unmarked)
MIC: 2 to 4 µg/mL
--
COMPOUND: CCN1CCN(C(=O)NC(C(=O)N[C@H]2Cc3cccc(C(=O)O)c3OB2O)c2cc(F)c(O)c(Cl)c2)C(=O)C1=O (some centres unmarked)
MIC: 2 to 4 µg/mL
--
COMPOUND: NS(=O)(=O)Nc1ccc(F)c([C@H](NC(=O)N2CCN(CC(F)(F)F)C(=O)C2=O)C(=O)N[C@H]2Cc3cccc(C(=O)O)c3OB2O)c1 (single isomer, unassigned)
MIC: 8 to 16 µg/mL
--
COMPOUND: NCCN1CCN(C(=O)N[C@H](C(=O)N[C@H]2Cc3ccc(F)c(C(=O)O)c3OB2O)c2c(F)cc(O)cc2F)C(=O)C1=O (single isomer, unassigned)
MIC: 8 to 16 µg/mL
--
COMPOUND: CCN1CCN(C(=O)NC(C(=O)N[C@H]2Cc3cccc(C(=O)O)c3OB2O)c2c(F)cc(NC(=O)NC)cc2F)C(=O)C1=O (some centres unmarked)
MIC: 2 to 4 µg/mL
--
COMPOUND: CCN1CCN(C(=O)NC(C(=O)N[C@H]2Cc3ccc(SCC[N+]4(C)CCCC4)c(C(=O)O)c3OB2O)c2csc(N)n2)C(=O)C1=O.O=C([O-])C(F)(F)F (some centres unmarked)
MIC: > 128 µg/mL
--
COMPOUND: NCCN1CCN(C(=O)N[C@@H](C(=O)N[C@H]2Cc3cccc(C(=O)O)c3OB2O)c2cccc(NS(N)(=O)=O)c2)C(=O)C1=O (single isomer, unassigned)
MIC: 8 to 16 µg/mL
--
COMPOUND: O=C(O)c1cccc2c1OB(O)[C@@H](NC(=O)[C@H](NC(=O)N1CCN(CC(F)(F)F)C(=O)C1=O)c1c(F)cc(O)cc1F)C2 (single isomer, unassigned)
MIC: 2 to 4 µg/mL
--
COMPOUND: CCN1CCN(C(=O)NC(C(=O)N[C@H]2Cc3cccc(C(=O)O)c3OB2O)c2ccc(N)c(F)c2)C(=O)C1=O (some centres unmarked)
MIC: 2 to 4 µg/mL
--
COMPOUND: CCN1CCN(C(=O)NC(C(=O)N[C@H]2Cc3cccc(C(=O)O)c3OB2O)c2c(F)cc(O)cc2Cl)C(=O)C1=O (some centres unmarked)
MIC: 0.5 to 1 µg/mL
--
COMPOUND: CCN1CCN(C(=O)NC(C(=O)N[C@H]2Cc3cccc(C(=O)O)c3OB2O)c2c(F)c(O)cc(O)c2F)C(=O)C1=O (some centres unmarked)
MIC: 8 to 16 µg/mL
--
COMPOUND: NCCCN1CCN(C(=O)N[C@@H](C(=O)N[C@H]2Cc3cccc(C(=O)O)c3OB2O)c2cccc(NS(N)(=O)=O)c2)C(=O)C1=O
MIC: 2 to 4 µg/mL
--
COMPOUND: O=C(Nc1ccccc1)NC(C(=O)N[C@H]1Cc2ccc(F)c(C(=O)O)c2OB1O)c1ncc(O)cc1F (some centres unmarked)
MIC: 8 to 16 µg/mL
--
COMPOUND: NCCN1CCN(C(=O)N[C@H](C(=O)N[C@H]2Cc3cccc(C(=O)O)c3OB2O)c2c(F)cccc2F)C(=O)C1=O (single isomer, unassigned)
MIC: > 128 µg/mL
--
COMPOUND: NCCN1CCN(C(=O)N[C@@H](C(=O)N[C@H]2Cc3cccc(C(=O)O)c3OB2O)c2cc(F)c(O)c(F)c2)C(=O)C1=O (single isomer, unassigned)
MIC: 2 to 4 µg/mL
--
COMPOUND: CCN1CCN(C(=O)NC(C(=O)N[C@H]2Cc3ccc(C=NOCCN)c(C(=O)O)c3OB2O)c2csc(N)n2)C(=O)C1=O (some centres unmarked)
MIC: 32 to 64 µg/mL
--
COMPOUND: CCN1CCN(C(=O)N[C@@H](C(=O)N[C@H]2Cc3cccc(C(=O)O)c3OB2O)c2ccc(C(=O)O)c(Cl)c2)C(=O)C1=O (single isomer, unassigned)
MIC: 2 to 4 µg/mL
